Assay: Solubility study in aqueous surfactant solutions
Type: physicochemical
Details: water without surfactant (control), thermodynamic from solid; water (no surfactant), 37° C., after 60 minutes stirring; theoretical maximum 0.20 mg/ml; read-out: Concentration (solubility)
ENDPOINT NAME: solubility at 60 min (µg/mL)
Lab book: enter the figure in µg/mL, no units written.

Consider the compound CC(C)C(=O)N1CCC(c2cc(-c3ccc(NC(=O)c4cn(C(C)C)c(=O)n(-c5ccccn5)c4=O)cc3)c3c(N)ncnn23)CC1.O=C(O)/C=C\C(=O)O [Compound I maleate] and give its recorded solubility at 60 min.
7

----------
Assay: Solubility study in aqueous surfactant solutions
Format: physicochemical
Settings: 0.2% (w/v) poloxamer 188 in water, aqueous with cosolvent or surfactant or cyclodextrin, thermodynamic from solid; 0.2% Poloxamer 188 in water, 37° C., after 60 minutes stirring; theoretical maximum 0.20 mg/ml; read-out: Concentration (solubility)
ENDPOINT NAME: solubility at 60 min

Find the measured solubility at 60 min of CC(C)C(=O)N1CCC(c2cc(-c3ccc(NC(=O)c4cn(C(C)C)c(=O)n(-c5ccccn5)c4=O)cc3)c3c(N)ncnn23)CC1.O=C(O)/C=C\C(=O)O [Compound I maleate] and report it.
18 µg/mL

----------
Assay: Solubility study in aqueous surfactant solutions
Format: physicochemical
Details: 0.2% (w/v) poloxamer 407 in water, aqueous with cosolvent or surfactant or cyclodextrin, thermodynamic from solid; 0.2% Poloxamer 407 in water, 37° C., after 60 minutes stirring; theoretical maximum 0.20 mg/ml; read-out: Concentration (solubility)
ENDPOINT NAME: solubility at 60 min (µg/mL)
Value expressed in µg/mL; do not type the unit.

Please report solubility at 60 min for the following compound: CC(C)C(=O)N1CCC(c2cc(-c3ccc(NC(=O)c4cn(C(C)C)c(=O)n(-c5ccccn5)c4=O)cc3)c3c(N)ncnn23)CC1.O=C(O)/C=C\C(=O)O [Compound I maleate]
9

----------
Molecular target: phosphor-Axl (Homo sapiens (Human), UniProt P30530)
Sequence (P30530 26-894): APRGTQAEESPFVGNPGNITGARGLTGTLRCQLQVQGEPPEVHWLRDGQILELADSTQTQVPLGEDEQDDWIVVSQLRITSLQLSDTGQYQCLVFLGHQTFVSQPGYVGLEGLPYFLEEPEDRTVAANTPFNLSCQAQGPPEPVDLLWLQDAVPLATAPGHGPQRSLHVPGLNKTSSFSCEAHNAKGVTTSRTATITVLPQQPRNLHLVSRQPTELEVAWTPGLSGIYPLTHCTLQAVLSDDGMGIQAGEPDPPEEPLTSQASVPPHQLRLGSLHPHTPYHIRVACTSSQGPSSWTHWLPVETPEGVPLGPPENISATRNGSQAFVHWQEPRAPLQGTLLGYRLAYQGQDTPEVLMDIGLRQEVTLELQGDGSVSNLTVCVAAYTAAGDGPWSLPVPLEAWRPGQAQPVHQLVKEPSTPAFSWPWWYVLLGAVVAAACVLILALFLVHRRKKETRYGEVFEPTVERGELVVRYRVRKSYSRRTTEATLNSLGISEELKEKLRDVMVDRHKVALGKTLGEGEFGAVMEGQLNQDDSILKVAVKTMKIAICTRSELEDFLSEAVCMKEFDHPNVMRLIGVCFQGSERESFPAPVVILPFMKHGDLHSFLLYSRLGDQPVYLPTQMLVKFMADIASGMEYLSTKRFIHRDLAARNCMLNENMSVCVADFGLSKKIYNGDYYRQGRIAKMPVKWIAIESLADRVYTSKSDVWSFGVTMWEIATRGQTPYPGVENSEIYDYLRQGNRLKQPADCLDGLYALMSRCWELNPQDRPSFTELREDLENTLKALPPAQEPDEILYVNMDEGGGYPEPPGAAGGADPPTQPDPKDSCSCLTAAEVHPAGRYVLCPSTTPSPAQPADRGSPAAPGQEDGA
Assay: TAM enzymatic assay (HTRF), Axl
Type: biochemical
pIC50: −log10 of the molar value.
ENDPOINT NAME: pIC50

Give the reported pIC50 for this compound. CC(C)C(=O)N1CCC(c2cc(-c3ccc(NC(=O)c4cn(C(C)C)c(=O)n(-c5ccccn5)c4=O)cc3)c3c(N)ncnn23)CC1.O=C(O)/C=C\C(=O)O [Compound I maleate]
> 8.30

----------
Experiment: Solubility study in aqueous surfactant solutions
Assay type: physicochemical
Conditions: 0.2% (w/v) sodium lauryl sulfate in water, aqueous with cosolvent or surfactant or cyclodextrin, thermodynamic from solid; 0.2% SLS in water, 37° C., after 60 minutes stirring; theoretical maximum 0.20 mg/ml; read-out: Concentration (solubility)
ENDPOINT NAME: solubility at 60 min

Read off the recorded solubility at 60 min for CC(C)C(=O)N1CCC(c2cc(-c3ccc(NC(=O)c4cn(C(C)C)c(=O)n(-c5ccccn5)c4=O)cc3)c3c(N)ncnn23)CC1.O=C(O)/C=C\C(=O)O [Compound I maleate]
> 200 µg/mL

----------
Target: c-Mer (Homo sapiens (Human))
Sequence (Q12866 21-999): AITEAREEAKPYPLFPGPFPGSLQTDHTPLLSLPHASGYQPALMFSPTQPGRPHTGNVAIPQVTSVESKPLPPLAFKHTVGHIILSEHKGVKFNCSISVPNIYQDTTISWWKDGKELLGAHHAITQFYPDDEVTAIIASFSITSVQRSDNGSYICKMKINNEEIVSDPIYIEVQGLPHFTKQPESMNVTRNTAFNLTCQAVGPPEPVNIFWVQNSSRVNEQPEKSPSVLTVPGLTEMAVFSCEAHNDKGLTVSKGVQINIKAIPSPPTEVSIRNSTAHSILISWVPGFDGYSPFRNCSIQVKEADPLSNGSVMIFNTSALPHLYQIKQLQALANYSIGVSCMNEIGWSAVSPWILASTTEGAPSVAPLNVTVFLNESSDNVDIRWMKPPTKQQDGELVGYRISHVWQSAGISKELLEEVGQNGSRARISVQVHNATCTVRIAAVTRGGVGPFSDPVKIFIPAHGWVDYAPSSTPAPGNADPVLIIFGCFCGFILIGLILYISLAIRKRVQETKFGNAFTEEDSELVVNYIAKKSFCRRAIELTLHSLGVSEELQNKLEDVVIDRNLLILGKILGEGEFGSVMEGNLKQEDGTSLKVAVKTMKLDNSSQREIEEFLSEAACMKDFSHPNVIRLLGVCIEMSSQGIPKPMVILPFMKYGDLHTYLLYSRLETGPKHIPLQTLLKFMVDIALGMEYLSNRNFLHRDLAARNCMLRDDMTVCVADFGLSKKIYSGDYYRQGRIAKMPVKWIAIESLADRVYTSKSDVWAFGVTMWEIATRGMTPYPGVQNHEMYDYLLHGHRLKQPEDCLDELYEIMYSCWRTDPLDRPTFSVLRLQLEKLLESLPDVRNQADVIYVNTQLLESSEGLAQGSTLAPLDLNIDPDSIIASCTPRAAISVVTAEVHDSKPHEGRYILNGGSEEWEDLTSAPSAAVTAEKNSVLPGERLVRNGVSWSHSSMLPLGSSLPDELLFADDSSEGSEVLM
Assay: TAM enzymatic assay (HTRF), Mer
Assay type: biochemical
ENDPOINT NAME: IC50

Tell me IC50 reported for CC(C)C(=O)N1CCC(c2cc(-c3ccc(NC(=O)c4cn(C(C)C)c(=O)n(-c5ccccn5)c4=O)cc3)c3c(N)ncnn23)CC1.O=C(O)/C=C\C(=O)O [Compound I maleate]
< 5 nM
